Examples of molecules with documented CC50 follow.
Test: in vitro
Settings: African green monkey
Observed Property: CC50

>>> experimental_result("CC(C)Sc1ccc(SC(C)C)c(O)c(=O)c1O [Compound 696]")
"118 µM"
>>> experimental_result("Cc1cc(O)c(=O)c(O)cc1C(=O)N1CCN(C(=O)C2COc3ccccc3O2)CC1 (centres unmarked) [Compound 876]")
"≥ 120 µM"
>>> experimental_result("Cc1cc(O)c(=O)c(O)cc1-c1ccc(-c2cccc3ccccc23)cc1 [Compound 234]")
"≥ 120 µM"
>>> experimental_result("CCCCCCSc1cccc(O)c(=O)c1O [Compound 840]")
"≥ 120 µM"
>>> experimental_result("Cc1cc(O)c(=O)c(O)cc1C(=O)NCc1ccc(-c2ccccc2)cc1 [Compound 539]")
"71 µM"
>>> experimental_result("Cc1ccc(Sc2cccc(O)c(=O)c2O)cc1 [Compound 838]")
"86 µM"
>>> experimental_result("C/C(=N\\c1ccccc1F)c1c(C)cc(=O)n(O)c1O [Compound 516]")
"≥ 120 µM"
>>> experimental_result("Cc1cc(O)c(=O)c(O)cc1C(=O)NCc1ccc(N2CCCC2)cc1 [Compound 1019]")
"≥ 120 µM"
>>> experimental_result("Cc1cc(O)c(=O)c(O)cc1C(=O)c1ccccc1O [Compound 311]")
"115 µM"
>>> experimental_result("CCCCNC(=O)c1cc(O)c(=O)c(O)cc1C [Compound 1039]")
"≥ 120 µM"
>>> experimental_result("Cc1cc(O)c(=O)c(O)cc1C(=O)N1CCN(C(c2ccc(F)cc2)c2ccc(F)cc2)CC1 [Compound 1017]")
"≥ 120 µM"

====

Experiment: in vitro
Conditions: human
Examples of compounds with documented CC50 follow.
Observed Property: CC50 (µM)

>>> experimental_result("Cc1cc(O)c(=O)c(O)cc1C(=O)c1cccs1")
119
>>> experimental_result("O=C1C=CC(=O)c2ccccc21")
27.5

====

Examples of compounds with documented CC50 follow.
System: Vero cells
Experiment: Quantitative cytotoxicity in Vero cells, crystal violet staining of EC50 plates
Details: read-out: CC50 Vero, 1 day of compound exposure, crystal violet, * marks limit values
Observed Property: CC50

>>> experimental_result("CCc1cccc(N=C(C)c2c(C)cc(=O)n(O)c2O)c1 [Compound 518]")
"> 120 µM"
>>> experimental_result("CC[C@H](C)[C@H](NC(=O)OCC1c2ccccc2-c2ccccc21)C(=O)Sc1cccccc1=O [Compound 686]")
"> 120 µM"
>>> experimental_result("O=C(Cc1ccccc1)Sc1cccccc1=O [Compound 680]")
"> 120 µM"
>>> experimental_result("Cc1ccc(/C=C/C(=O)c2ccccc(=O)c2O)cc1 [Compound 340]")
"70 µM"

====

Experiment: Quantitative cytotoxicity in Vero cells, crystal violet staining of EC50 plates
Conditions: African green monkey
Observed Property: CC50 at 1 day

>>> experimental_result("Cc1cc(O)c(=O)c(O)cc1S(=O)(=O)c1ccccc1 [Compound 336]")
"65.8 µM"
>>> experimental_result("C/C(=N\\c1ccccc1Cl)c1c(C)cc(O)n(O)c1=O [Compound 668]")
"> 120 µM"
>>> experimental_result("CC(=O)c1c(C)cc(O)c(=O)c(O)c1-c1ccccc1 [Compound 330]")
"> 300 µM"
>>> experimental_result("Cc1cc(O)c(=O)c(O)cc1C(=O)c1ccc(Br)cc1 [Compound 358]")
"> 250 µM"
>>> experimental_result("Cc1cc(O)c(=O)c(O)cc1C(=O)NC(CCC(=O)OC(C)(C)C)C(=O)OC(C)(C)C (stereo not shown) [Compound 867]")
"> 120 µM"
>>> experimental_result("CC(=O)c1c(C)cc(O)c(=O)c(O)c1Cl [Compound 368]")
"> 250 µM"
>>> experimental_result("COC(=O)c1c(C)cc(O)c(=O)c(O)c1O [Compound 196]")
"> 250 µM"
>>> experimental_result("CC(=O)c1c(C)cc(O)c(=O)c(O)c1Br [Compound 320]")
"> 120 µM"
>>> experimental_result("CCCCCCSc1cccc(O)c(=O)c1O [Compound 840]")
"> 120 µM"
>>> experimental_result("CC(=O)c1c(C)cc(O)c(=O)c(O)c1-c1cccc2ccccc12 [Compound 331]")
"80.4 µM"
